Kindly find below pIC50 information for Fibroblast growth factor receptor 1 (Homo sapiens) taken from the literature.
pIC50: −log10 of the molar value.

# Molecule, pIC50
records = [
    ("C[C@@H](Oc1ccc2[nH]nc(/C=C(\\F)c3ccc(CN4CCC(CO)CC4)nc3)c2c1)c1c(Cl)cncc1Cl", "≥ 8.00"),
    ("CNC(=O)c1cc(C)c(F)c(-c2cnn3cc(-c4cnn([C@@H]5CCN(C)C[C@H]5F)c4)c(N[C@H]4CCOC4)nc23)c1", "7.52 to 8.00"),
    ("COc1cc(Nc2ncnc(-n3cnc4ccccc43)n2)cc(OC)c1OC", "< 4.92"),
    ("COc1cc2nccc(Oc3ccc(NC(=S)N[C@H](C)CO)c(Cl)c3)c2cc1C(N)=O", "6.00 to 6.70"),
    ("CO[C@@H]1COCC1Nc1cc(NC(=O)N2CCCc3cc(CN4CCCCOC4=O)c(C=O)nc32)ncc1C#N (stereo partly shown)", "< 5.00"),
    ("CCN1CCN(c2ccc(-c3cc4nc(CCc5cc(OC)cc(OC)c5)cnc4[nH]3)cc2)CC1", "> 7.00"),
    ("COc1ccc(Nc2ccc(Nc3ncnc(Nc4cc(OC)c(OC)c(OC)c4)n3)cc2)cc1", "5.30 to 6.07"),
]
